Each record here notes measured IC50.
target: Lp-PLA2 in human plasma (Homo sapiens, UniProt Q13093); construct: This assay may detect the activity of Lp-PLA2 in human plasma; from tissue; host or cells: pooled human plasma; test: Lp-PLA2 human plasma assay (Thio-PAF assay); type: biochemical; details: pooled human plasma, 2-thio-PAF substrate; read-out: pIC50 in the thio-PAF assay (converted)
Structures can show the parent of a compound that is named as a salt.

compound=CN1CCn2c1cc(OCc1cc(F)c(Oc3ccc(C#N)c(C(F)(F)F)c3)c(F)c1)nc2=O quantity_name=IC50 assay_result="≤ 100 nM"
compound=CN1CCn2c1cc(OCc1ccc(Oc3ccc(Cl)c(C(F)(F)F)c3)c(F)c1)nc2=O quantity_name=IC50 assay_result="≤ 100 nM"
compound="CN1CCn2c1cc(OCc1cc(F)c(Oc3ccc(C(F)(F)F)nc3)c(F)c1)nc2=O [Example E2]" quantity_name=IC50 assay_result="≤ 1000 nM"
compound=Cc1cc(Oc2ccc(COc3cc4n(c(=O)n3)CCN4C)cc2F)ccc1C#N quantity_name=IC50 assay_result="≤ 1000 nM"
compound="N#Cc1cc(COc2cc3n(c(=O)n2)CCN3)ccc1Oc1ccc(F)c(Cl)c1 [Example E76, trifluoroacetic acid salt]" quantity_name=IC50 assay_result="≤ 1000 nM"
compound=CN1CCn2c1cc(OCc1ccc(Oc3ccc(F)c(C#N)c3)c(C#N)c1)nc2=O quantity_name=IC50 assay_result="≤ 100 nM"
compound=CN1CCn2c1cc(OCc1ccc(Oc3ccc(Cl)c(F)c3)cc1)nc2=O quantity_name=IC50 assay_result="≤ 1000 nM"
compound=CN1CCn2c1cc(OCc1cc(F)c(Oc3ccc(F)c(C(F)(F)F)c3)c(F)c1)nc2=O quantity_name=IC50 assay_result="≤ 100 nM"

Moving on to another compound below.
Lab note: CC(C)N1CCn2c1cc(OCc1ccc(Oc3cccc(C(F)(F)F)c3)c(C#N)c1)nc2=O [Example E51, trifluoroacetic acid salt] gave IC50 of ≤ 100 nM

----------
target: recombinant human Lp-PLA2 (Homo sapiens, UniProt Q13093); test: Recombinant human Lp-PLA2 assay (rhLp-PLA2, PED6 assay); details: recombinant human Lp-PLA2, PED6 substrate; upper limit for pIC50 in this assay is 9.3
pIC50: −log10 of the molar value. Structures can show the parent of a compound that is named as a salt.
quantity name: pIC50

Here are 5 molecules together with their reported answers.
molecule=CN1CCn2c1cc(OCc1ccc(Oc3cccc(F)c3)c(C#N)c1)nc2=O assay_result="≥ 8.00"
molecule="CN1CCn2c1cc(OCc1ccc(Oc3ccc(Cl)c(C(F)(F)F)c3)c(C#N)c1)nc2=O [Example 101, trifluoroacetic acid salt]" assay_result="≥ 9.00"
molecule=CN1CCn2c1cc(OCc1ccc(Oc3ccnc(C(F)(F)F)c3)c(C#N)c1)nc2=O assay_result=8.90
molecule=CN1CCn2c1cc(OCc1ccc(Oc3ccnc(Cl)c3)c(F)c1)nc2=O assay_result="≥ 8.00"
molecule="CN1CCn2c1cc(OCc1ccc(Oc3cc(C#N)cc(C(F)(F)F)c3)c(F)c1)nc2=O [Example 150, trifluoroacetic acid salt]" assay_result="≥ 8.00"

Lab note: CN1CCn2c1cc(OCc1cc(F)c(Oc3ccc(F)c(F)c3)c(F)c1)nc2=O gave pIC50 of ≥ 8.00

----------
Target: recombinant human Lp-PLA2 (Homo sapiens)
Sequence (Q13093 22-441): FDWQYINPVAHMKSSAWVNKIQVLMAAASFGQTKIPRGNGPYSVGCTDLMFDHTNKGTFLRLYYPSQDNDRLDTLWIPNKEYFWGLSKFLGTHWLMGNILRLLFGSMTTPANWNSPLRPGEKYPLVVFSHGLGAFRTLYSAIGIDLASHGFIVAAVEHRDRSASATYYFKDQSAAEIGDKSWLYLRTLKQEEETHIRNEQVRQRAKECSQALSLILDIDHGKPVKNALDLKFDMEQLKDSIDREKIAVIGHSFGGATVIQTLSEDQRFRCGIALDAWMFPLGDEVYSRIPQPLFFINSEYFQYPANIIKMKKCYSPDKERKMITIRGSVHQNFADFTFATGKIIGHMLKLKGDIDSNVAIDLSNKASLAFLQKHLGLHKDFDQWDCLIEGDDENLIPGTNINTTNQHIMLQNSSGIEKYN
Test: Recombinant human Lp-PLA2 assay (rhLp-PLA2, PED6 assay)
Conditions: recombinant human Lp-PLA2, PED6 substrate; upper limit for pIC50 in this assay is 9.3
Each record here notes measured IC50.

Here are 4 compounds together with their reported answers.
compound=CN1CCn2c1cc(OCc1ccc(Oc3ccc(Cl)c(C#N)c3)c(F)c1)nc2=O quantity_name=IC50 assay_result="≤ 0.001 µM"
compound=CN1CCn2c1cc(OCc1cc(F)c(Oc3ccc(F)c(Cl)c3)c(F)c1)nc2=O quantity_name=IC50 assay_result="≤ 0.001 µM"
compound=CN1CCn2c1cc(OCc1ccc(Oc3ccc(C(F)(F)F)nc3)c(F)c1)nc2=O quantity_name=IC50 assay_result="≤ 0.01 µM"
compound=CN1CCn2c1cc(OCc1ccc(Oc3cncc(C(F)(F)F)c3)c(F)c1)nc2=O quantity_name=IC50 assay_result="≤ 0.01 µM"

Lab note: CN1CCn2c1cc(OCc1ccc(F)c(Oc3cccc(Cl)c3)c1)nc2=O gave IC50 of ≤ 0.01 µM

----------
molecular target: recombinant human Lp-PLA2 (Homo sapiens); test: Recombinant human Lp-PLA2 assay (rhLp-PLA2, PED6 assay); conditions: recombinant human Lp-PLA2, PED6 substrate; upper limit for pIC50 in this assay is 9.3
Counter-ions that a name gives are not always drawn.
quantity name: IC50

compound="CN1CCn2c1cc(OCc1ccc(Oc3ccnc(C#N)c3)c(C#N)c1)nc2=O [Example 130, trifluoroacetic acid salt]" assay_result="≤ 10 nM"
compound="CN1CCn2c1cc(OCc1ccc(Oc3ccnc(Cl)c3)c(C#N)c1)nc2=O [Example 107]" assay_result="≤ 10 nM"
compound="N#Cc1cc(COc2cc3n(c(=O)n2)CCN3)ccc1Oc1cncc(C(F)(F)F)c1 [Example 124, trifluoroacetic acid salt]" assay_result="≤ 10 nM"
compound="CN1CCn2c1cc(OCc1ccc(Oc3ccc(Cl)c(F)c3)cc1)nc2=O [Example E25]" assay_result="≤ 10 nM"
compound="CN1CCn2c1cc(OCc1ccc(Oc3ccc(F)c(C(F)(F)F)c3)c(F)c1)nc2=O [Example E45, trifluoroacetic acid salt]" assay_result="≤ 1 nM"

Lab note: O=c1nc(OCc2ccc(Oc3cc(F)c(F)c(F)c3)c(F)c2)cc2n1CCN2 [Example E77, trifluoroacetic acid salt] gave IC50 of ≤ 1 nM

Lab note: Cc1cc(Oc2ccc(COc3cc4n(c(=O)n3)CCN4C)cc2F)ccc1C#N [Example 149] gave IC50 of ≤ 10 nM

----------
biological target: recombinant human Lp-PLA2 (Homo sapiens, UniProt Q13093); experiment: Recombinant human Lp-PLA2 assay (rhLp-PLA2, PED6 assay); conditions: recombinant human Lp-PLA2, PED6 substrate; upper limit for pIC50 in this assay is 9.3
Structures can show the parent of a compound that is named as a salt.
Each record here notes measured IC50.

Here are 2 molecules together with their reported answers.
molecule="CN1CCn2c1cc(OCc1ccc(Oc3ccc(F)c(C(F)(F)F)c3)c(C#N)c1)nc2=O [Example E44, trifluoroacetic acid salt]" quantity_name=IC50 assay_result="< 0.501 nM"
molecule="CN1CCn2c1cc(OCc1cc(F)c(Oc3ccc(Cl)c(F)c3)c(F)c1)nc2=O [Example E86]" quantity_name=IC50 assay_result="≤ 1 nM"

Lab note: N#Cc1cc(COc2cc3n(c(=O)n2)CCN3)ccc1Oc1ccc(C#N)c(C(F)(F)F)c1 [Example 88] gave IC50 of 2 nM

Lab note: CN1CCn2c1cc(OCc1ccc(Oc3ccc(F)c(F)c3)c(C#N)c1)nc2=O [Example E34] gave IC50 of ≤ 10 nM

Lab note: CN1CCn2c1cc(OCc1ccc(Oc3ccnc(C#N)c3)c(F)c1)nc2=O [Example 129, trifluoroacetic acid salt] gave IC50 of ≤ 10 nM

Lab note: CN1CCn2c1cc(OCc1cc(F)c(Oc3cc(F)cc(F)c3)c(F)c1)nc2=O [Example 99] gave IC50 of ≤ 10 nM

Lab note: CN1CCn2c1cc(OCc1ccc(Oc3ccc(F)c(Cl)c3)c(F)c1)nc2=O [Example E15] gave IC50 of ≤ 10 nM

Lab note: CN1CCn2c1cc(OCc1ccc(Oc3ccc(Cl)c(C(F)(F)F)c3)cc1)nc2=O [Example E5] gave IC50 of ≤ 10 nM

Lab note: N#Cc1cc(COc2cc3n(c(=O)n2)CCN3)ccc1Oc1cc(F)cc(C(F)(F)F)c1 [Example 120] gave IC50 of ≤ 10 nM

Lab note: N#Cc1cc(COc2cc3n(c(=O)n2)CCN3)ccc1Oc1ccc(F)c(F)c1 [Example E72, trifluoroacetic acid salt] gave IC50 of ≤ 1 nM

Lab note: CN1CCn2c1cc(OCc1ccc(Oc3ccc(F)c(C#N)c3)c(F)c1)nc2=O [Example 139] gave IC50 of ≤ 10 nM

Lab note: CN1CCn2c1cc(OCc1ccc(Oc3cncc(C(F)(F)F)c3)c(C#N)c1)nc2=O [Example 115, trifluoroacetic acid salt] gave IC50 of 3.98 nM

Lab note: CN1CCn2c1cc(OCc1ccc(Oc3ccc(C#N)c(C(F)(F)F)c3)c(C#N)c1)nc2=O [Example E78] gave IC50 of < 0.501 nM

Lab note: CN1CCn2c1cc(OCc1cc(F)c(Oc3ccc(C(F)(F)F)nc3)c(F)c1)nc2=O [Example E2] gave IC50 of ≤ 10 nM

Lab note: CN1CCn2c1cc(OCc1cc(F)c(Oc3ccc(C(F)(F)F)c(F)c3)c(F)c1)nc2=O [Example 140] gave IC50 of ≤ 1 nM

Lab note: CN1CCn2c1cc(OCc1ccc(Oc3ccc(C(F)(F)F)cn3)c(C#N)c1)nc2=O [Example E35, trifluoroacetic acid salt] gave IC50 of ≤ 10 nM

The values you see were collected from patent US8975400B2.
